Target: High affinity 3',5'-cyclic-AMP phosphodiesterase 7A (Homo sapiens, UniProt Q13946)
Sequence (Q13946 whole entry): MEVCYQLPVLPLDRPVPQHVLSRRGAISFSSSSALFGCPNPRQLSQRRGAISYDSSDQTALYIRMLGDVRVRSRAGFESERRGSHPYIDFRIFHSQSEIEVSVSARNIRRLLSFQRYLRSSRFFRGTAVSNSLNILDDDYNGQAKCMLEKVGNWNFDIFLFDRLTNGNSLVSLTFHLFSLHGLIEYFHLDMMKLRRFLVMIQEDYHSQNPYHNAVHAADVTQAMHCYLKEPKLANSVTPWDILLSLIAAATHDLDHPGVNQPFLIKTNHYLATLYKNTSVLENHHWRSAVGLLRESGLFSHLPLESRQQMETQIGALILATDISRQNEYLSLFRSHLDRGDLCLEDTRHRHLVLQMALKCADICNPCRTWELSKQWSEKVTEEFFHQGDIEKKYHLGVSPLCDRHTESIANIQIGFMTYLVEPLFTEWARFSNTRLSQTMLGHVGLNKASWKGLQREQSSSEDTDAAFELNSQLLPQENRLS
Experiment: Displacement of [3H]-cAMP from human recombinant PDE7A
pIC50: −log10 of the molar value.
Parameter: pIC50

I: COc1cc(N2CCCN(C(C)=O)CC2)ccc1-c1nc2snc(C3CCCCC3)c2c(=O)[nH]1
II: COc1cc(N2CCCNCC2)ccc1-c1nc2onc(C3CCCCC3)c2c(=O)[nH]1
Task: I need your help: which of the pair I , II has higher pIC50? Please identify the chosen entry by its label.
Result: I
(I: 7.92, II: 7.51)

I: CNC(=O)Nc1ccc(-c2nc3snc(C4CCCCC4)c3c(=O)[nH]2)c(OC)c1
II: COc1cc(NCCN)ccc1-c1nc2snc(C3CCCCC3)c2c(=O)[nH]1
Task: Rank I against II by their pIC50 values and give the higher one. # respond with the chosen item's label
Result: I

1: CCOc1cc(N2CCC(N)CC2)ccc1-c1nc2snc(C3CCCCC3)c2c(=O)[nH]1
2: CCOc1cc(O[C@@H]2CCNC2)ccc1-c1nc2snc(C3CCCCC3)c2c(=O)[nH]1
Task: Exercise: compare 1 and 2 ; which one has the greater pIC50? Answer = label.
Result: 1
(1: 7.92, 2: 7.46)

I: COc1cc(N2CCN(C(C)=O)CC2)ccc1-c1nc2snc(C3CCCCC3)c2c(=O)[nH]1
II: COc1cc(N)ccc1-c1nc2snc(-c3c(F)cccc3F)c2c(=O)[nH]1
Task: When I and II are compared, which has the higher number for pIC50? Write down the label of the entry you select.
Result: I
